This listing pairs compounds with measured pKi.
- experimental-system: Cannabinoid receptor 1 (Homo sapiens)
- Sequence (P21554 whole entry): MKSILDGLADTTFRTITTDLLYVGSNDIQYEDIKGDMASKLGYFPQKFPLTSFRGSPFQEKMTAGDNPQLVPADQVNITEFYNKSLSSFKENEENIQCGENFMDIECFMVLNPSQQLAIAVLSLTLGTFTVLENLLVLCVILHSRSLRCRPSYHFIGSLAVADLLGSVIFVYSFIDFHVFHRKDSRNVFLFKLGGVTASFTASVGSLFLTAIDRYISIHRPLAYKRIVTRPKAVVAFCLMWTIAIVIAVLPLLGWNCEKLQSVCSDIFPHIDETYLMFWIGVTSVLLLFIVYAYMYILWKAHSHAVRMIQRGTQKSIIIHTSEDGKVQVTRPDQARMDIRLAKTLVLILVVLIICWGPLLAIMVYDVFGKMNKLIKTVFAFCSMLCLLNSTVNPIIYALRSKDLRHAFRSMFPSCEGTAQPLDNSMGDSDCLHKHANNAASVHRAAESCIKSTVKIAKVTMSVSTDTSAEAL
Remember, pKi is on a log scale: it is -log10 of the molar concentration.

> print(dat)
                                   compound                    experimental.system  value.measured
1  CCCCCOc1cccc2c(O)c(C(=O)NC34CC5CC(CC(C5)C3)C4)cnc12  Cannabinoid receptor 1 (Homo sapiens)            6.59

Next, consider the following compound.
Incoming: Quick check: pKi on Cannabinoid receptor 1 (Homo sapiens), item CCC1COc2cccc3c(=O)c(C(=O)NC45CC6CC(CC(C6)C4)C5)cn1c23 (stereo not given) ?
Outgoing: 6.00
